Can you tell me viability, T/C for the items I'm about to list?
- Test system: 922993-354-T-J3-PDC complex spheroids, viability;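 further: spheroids exposed to compounds for seven days; 100% = DMSO vehicle control viability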
- ASSAY_REMARKS: Anticancer human tumor 922993-354-T-J3-PDC patient-derived endometrial carcinoma cell line growth inhibition [GQUAD]
- CONDITION_LABEL: second compound 0.1 µM; first compound 0.316 µM; active compounds read low
Field format: number, assumed %, no unit text.

Hello, please tell me recorded viability, T/C for this one: Nc1ccn(C2OC(CO)C(O)C2(F)F)c(=O)n1 (stereo unspecified) + CN(C)c1ccc(Nc2c3ccc(NC(=O)CCN4CCCC4)cc3nc3cc(NC(=O)CCN4CCCC4)ccc23)cc1
12.2

For the molecule CC(=O)O[C@H]1C(=O)[C@@]2(C)[C@H]([C@H](OC(=O)c3ccccc3)[C@]3(O)C[C@H](OC(=O)[C@H](O)[C@@H](NC(=O)c4ccccc4)c4ccccc4)C(C)=C1C3(C)C)[C@]1(OC(C)=O)CO[C@@H]1C[C@@H]2O + Cc1cnc(CNC(=O)c2c(=O)c3ccc(N4CCCN(C)CC4)nc3n3c2sc2ccccc23)cn1 , report viability, T/C.
71.6

Quick one: give measured viability, T/C for Nc1ccn(C2OC(CO)C(O)C2(F)F)c(=O)n1 (stereo unspecified) + Cc1[nH]c2ccc(F)cc2c1-c1nc2c3cccnc3c3ncccc3c2[nH]1
23.9

Assign viability, T/C to the following record: COc1ccc([C@@H](O)c2cc(-c3ncnc4cc(N5CCOCC5)ccc34)c(F)cc2Cl)nn1 + CN(C)c1ccc(Nc2c3ccc(NC(=O)CCN4CCCC4)cc3nc3cc(NC(=O)CCN4CCCC4)ccc23)cc1
89.7

Supply measured viability, T/C of CC1COCCN1c1cc(-c2ccnn2C)c2ccnc(-c3ccn[nH]3)c2n1 (stereo unspecified) + CN(C)c1ccc(Nc2c3ccc(NC(=O)CCN4CCCC4)cc3nc3cc(NC(=O)CCN4CCCC4)ccc23)cc1 in your reply.
36.1

Give viability, T/C for the following molecule: CC1COCCN1c1cc(C2(S(C)(=N)=O)CC2)nc(-c2ccnc3[nH]ccc23)n1 (stereo unspecified) + CN(C)c1ccc(Nc2c3ccc(NC(=O)CCN4CCCC4)cc3nc3cc(NC(=O)CCN4CCCC4)ccc23)cc1
96.4

Hello, the source for this data is PubChem BioAssay AID2060489, in case you need it.
